assay: inhibitors of hydroxyurea-induced Chk1 phosphorylation, primary screen, imaging, HeLa, phospho-Chk1 antibody, percent positive cells (AID 1186); settings: hydroxyurea-induced phospho-Chk1 immunofluorescence imaging, higher = more signal
Please note: t applies when z-score is -0.4 or greater, and f applies otherwise.

Answered cases to consult:
- compound: "CC(C)C(=C=CC[C@H](O)c1cccc(OCCO)c1)C[C@H](O)COCc1ccccc1"
  classification: "f"
- compound: "CC(=O)NCCCC[C@@H]1NC(=O)[C@H]2C[C@@H](C(=O)NCCCCCC[N+](C)(C)C)[C@@H](c3cccc(OCCO)c3)N2C1=O"
  classification: "t"

Lab note: next compound to report on.
Asked: Entry C=CCC(OC(C)=O)[C@@H]1[C@@H](N(Cc2ccc(-c3cccc(C(F)(F)F)c3)o2)C(=O)c2ccc(C)cc2)c2cc(OCCCO)ccc2N1C(=O)c1ccc(-c2ccccc2)cc1 (some centres undefined) : is its z-score no less than -0.4?
Given back: t

====

target: Calmodulin-1 (Homo sapiens) (UniProt P0DP23); assay: calcium-bound CALM1 binders on microarrays, profiling panel, artefact control for SMM control-protein annotation, biochemical, small-molecule microarray, Cy5-labelled CALM1, plus calcium (AID 1112); settings: Cy5-CALM1 binding fluorescence, higher = more signal;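 also: score merges spot fluorescence with signal to noise from triplicate slides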
endpoint_label: composite z-score
Answers are plain numbers.

- compound: "COCCOC(=O)N1C(=O)[C@@]2(c3cc(C#CCCO)ccc31)[C@H](c1ccccc1OCCO)N1[C@H](c3ccccc3)[C@H](c3ccccc3)OC(=O)[C@H]1[C@@H]2C(=O)N1CCN(c2ncccn2)CC1"
  composite z-score: 0.569
- compound: "O=C1OCCC=C[C@H]2OC34C=CCN(c5ccc6ccccc6c5)C(=O)[C@H]3N(CCCCCO)C(=O)[C@@H]4C12 (some centres undefined)"
  composite z-score: -0.0432
- compound: "CCCCC=C[C@@H](NC(=O)c1cccs1)c1ccccc1"
  composite z-score: 0.906
- compound: "C=CCOC(=O)[C@@H]1[C@H]2C(=O)O[C@H](c3ccccc3)[C@H](c3ccccc3)N2[C@H](c2ccc(OCCOC(=O)[C@@H]3C[C@@H]4C(=O)N[C@@H](Cc5ccccc5)C(=O)N4[C@@H]3c3cccc(OCCO)c3)cc2)[C@@]12C(=O)Nc1ccc(I)cc12"
  composite z-score: -0.137
- compound: "O=C1OCCC=C[C@H]2OC34C=CCN(Cc5ccccc5)C(=O)[C@H]3N(CCCO)C(=O)[C@@H]4C12 (some centres undefined)"
  composite z-score: 0.0072

For each of the compounds below, state composite z-score.
1. Cc1ccc(S[C@]2(C(=O)NCC(C)C)CC(=O)N(Cc3ccccc3Cl)[C@@H]2c2ccc(CO)cc2)cc1
2. CCCCCCc1nc(CCCc2cc3c(c(CCCCCC)n2)[Si](C(C)C)(C(C)C)OC3)cc2c1[Si](C(C)C)(C(C)C)OC2
3. COc1ccc(C(=O)Nc2cccc(CN3C(=O)[C@]4(O[C@H](CC(=O)N5CCC[C@H]5CO)[C@@H]([Si](C)(C)c5ccc(OC)cc5)[C@@H]4C)c4ccccc43)c2)cc1
4. COC(=O)C[C@@H]1C[C@H](C)[C@]2(O1)C(=O)N(Cc1ccccc1)c1ccc(NC(C)=O)cc12
5. O=C1C[C@]2(c3ccc([N+](=O)[O-])cc3)C(=O)N(CC(F)(F)F)c3cc(CO)ccc3[C@H]2N1CC12CC3CC(CC(C3)C1)C2
6. CC(C)CNC(=O)[C@@H]1c2ccccc2C(=O)N(Cc2cc(C(F)(F)F)cc(C(F)(F)F)c2)[C@H]1c1ccc(CO)cc1
7. O=C1OCC=C[C@H]2OC34C=CCN(c5ccc(Cl)cc5)C(=O)[C@H]3N(CCCCCCO)C(=O)[C@@H]4[C@@H]12 (some centres undefined)

Given back:
-0.115
-0.0511
0.252
-0.324
-0.285
0.401
0.174

Respectfully, I request composite z-score for each entry included below.
1. O=c1cccc(CCc2ccccc2)o1
2. O=C(OCCF)C1=CCC(c2cccc(Cl)c2)O1 (centres undefined)
3. CCOC(=O)C[C@H]1[C@H](OC(=O)c2ccc(C(=O)c3ccccc3)cc2)[C@@H](NC(=O)C2CCCCC2)c2cc(OCCCO)ccc2N1C(=O)c1ccccc1
4. COCCCNC(=O)[C@@]1(c2ccc([N+](=O)[O-])cc2)CC(=O)N(CC23CC4CC(CC(C4)C2)C3)[C@@H]1c1ccc(CO)cc1

Given back:
-0.262
0.164
-0.0224
-0.548

For each listed entry, give its composite z-score.
1. COc1ccc([Si](C)(C)[C@@H]2[C@@H](CC(=O)N3CCC[C@H]3CO)O[C@]3(C(=O)N(C)c4c(Br)cc(C)cc43)[C@H]2C)cc1
2. COc1ccc(C(O)C2C=CC3C(=O)NC(=O)C3N2Nc2ccccn2)cc1OCc1ccccc1 (centres undefined)
3. O=C1[C@]2(CO)C=C(Br)[C@@H](C[C@@H]2c2ccccc2)[C@@]12CO2

Given back:
1. 0.0431
2. 0.0805
3. -0.322

Each compound below has a reported value. Please supply its composite z-score.
1. CC(C)N1C(=O)C[C@@](C(=O)NCc2ccccc2)(c2ccc([N+](=O)[O-])cc2)[C@H]1c1ccc(CO)cc1
2. O=C1C[C@@](C(=O)NC2CC2)(c2ccc([N+](=O)[O-])cc2)[C@@H](c2ccc(CO)cc2)N1CC12CC3CC(CC(C3)C1)C2
3. Cc1ccc(S[C@]2(C(=O)O)CC(=O)N(C3Cc4ccccc4C3)[C@@H]2c2ccc(CO)cc2I)cc1
4. C=CC[C@@]1(C(=O)N2CCOCC2)N=C(c2ccc(OCCCO)cc2)O[C@@H]1c1ccccc1N=[N+]=[N-]
5. COCCOC(=O)N1C(=O)[C@@]2(c3ccccc31)[C@H](c1ccc(O)cc1)N1[C@H](c3ccccc3)[C@H](c3ccccc3)OC(=O)[C@H]1[C@@H]2C(=O)N1CCc2cc(OC)c(OC)cc2C1
6. C[C@H]1NC(=O)[C@H](Cc2ccccc2)NC(=O)[C@@]23C(=O)N[C@@H](Cc4ccccc4)C2[C@H](C)[C@@]2(C)O[C@H]2C3/C=C/C/C=C\CNC1=O (some centres undefined)
7. CCOC(=O)C1=CCC(C(C)(C)C)N(S(=O)(=O)c2ccc(C)cc2)C1 (centres undefined)

Given back:
-0.602
-0.0787
-0.196
0.904
0.579
-0.859
0.197

====

assay: small-molecule binders of probe aLefty1, primary screen, biochemical, small-molecule microarray, 635/667 nm fluorescence (AID 1153); conditions: higher = more signal;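 also: score merges spot fluorescence with signal-to-noise ratio from the scanned slide images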
Exercise: state measured composite z-score for each of the compounds provided.
Answers are plain numbers.

Give composite z-score for each listed item.
1. O=C1O[C@@H](c2ccccc2)[C@@H](c2ccccc2)N2[C@@H](c3ccccc3OCCO)[C@]3(C(=O)Nc4ccc(C#CC5(O)CCCCCC5)cc43)[C@@H](C(=O)Nc3nc4ccccc4s3)[C@H]12
2. CCOC(=O)[C@H]1C[C@H]2O[C@@]23C[C@H]1C(=O)N1CCCC1[C@@H]3O[Si](C)(C)C(C)(C)C (stereo partly drawn)
3. CC(C)OC(=O)CC(=O)CC(O)c1ccc(C#N)cc1 (stereo not drawn)
4. CC=CC(O)C1C=CC2C(=O)N(c3ccccc3)C(=O)C2N1Nc1ccc(C(C)C)cc1 (stereo not drawn)
5. COCCCNC(=O)[C@@]1(C)c2ccccc2C(=O)N(Cc2cc(C(F)(F)F)cc(C(F)(F)F)c2)[C@H]1c1ccc(CO)cc1

Given back:
-0.12
-0.0573
0.213
0.424
-0.0969

Look at each compound and report its composite z-score.
1. C=CCOC(=O)[C@H]1[C@@H]2C(=O)O[C@@H](c3ccccc3)[C@@H](c3ccccc3)N2[C@@H](c2ccc(OCCOC(=O)[C@@H]3C[C@@H]4C(=O)NCC(=O)N4[C@@H]3c3ccc(O)cc3)cc2)[C@]12C(=O)Nc1ccccc12
2. CCCCCCCCCCC(O)C1C=CC2C(=O)N(Cc3ccccc3)C(=O)C2N1n1cnnc1 (stereo not drawn)
3. COCC1=C2[C@@H](CCc3ccccc3)OB(O)C[C@@H]2[C@@H]2C(=O)N(Cc3ccccc3)C(=O)[C@@H]2C1

Given back:
0.3
0.918
-0.0573

====

assay: basal RPMI8226 mitochondrial membrane potential changes, profiling panel, cell-based, JC-1 fluorescence, 24 h, 100 nL compound (AID 1169); conditions: RPMI8226 myeloma, JC-1 mitochondrial potential fluorescence, higher = more signal; also: test concentration not given here
Threshold rule: z-score greater than or equal to -0.5 is satisfied; below that, not satisfied.

Examples with answers:
- compound: "Cc1ccc([C@H]2C(C(=O)O)=C[C@@H](C)N2S(=O)(=O)c2ccc(C)cc2)cc1"
  classification: "satisfied"
- compound: "CCOC(=O)C[C@H]1[C@H](OC(=O)c2ccc(-c3ccccc3)cc2)[C@@H](NC(=O)c2ccc3ccccc3c2)c2cc(OCCCO)ccc2N1C(=O)Cc1ccc(OC)cc1"
  classification: "satisfied"
- compound: "O=C1N(CCS(=O)(=O)c2ccccc2)c2ccccc2C[C@@]12COC(c1ccc(OCCCO)cc1)=N2"
  classification: "not satisfied"
- compound: "COc1ccc([Si](C)(C)[C@H]2[C@H](CCn3cc(CCO)nn3)O[C@@]3(C(=O)N(Cc4ccc(N5CCOC5=O)cc4)c4ccccc43)[C@@H]2C)cc1"
  classification: "not satisfied"
- compound: "CCOC(=O)C1=CCC(C(C)(C)C)N(S(=O)(=O)c2ccc(C)cc2)C1 (centres undefined)"
  classification: "satisfied"

Asked: Quick check: does C=CCC(OC(C)=O)[C@@H]1[C@@H](N(Cc2ccc(-c3ccccc3)cc2)C(=O)Cc2ccc(F)cc2)c2cc(OCCCO)ccc2N1C(=O)c1ccc2ccccc2n1 (some centres undefined) have z-score greater than or equal to -0.5?
Given back: satisfied

Asked: Tell me whether z-score is at least -0.5 here: O=C1O[C@H](c2ccccc2)[C@H](c2ccccc2)N2[C@H]1[C@@H](C(=O)NC[C@H](O)c1ccccc1)[C@]1(C(=O)Nc3ccc(C#CCCO)cc31)[C@H]2c1ccc(O)cc1
Given back: satisfied

Asked: API: above_or_equal(metric=z-score, cutoff=-0.5) for item CC(C)CNC(=O)[C@@]1(c2ccc([N+](=O)[O-])cc2)CC(=O)N(CC23CC4CC(CC(C4)C2)C3)[C@@H]1c1ccc(CO)cc1
Given back: not satisfied

Asked: Hello, I need to know if COC(=O)C(CC#Cc1ccc2c(c1)[C@]1(C(=O)N2)[C@H](c2ccc(OCCO)cc2)N2[C@H](c3ccccc3)[C@H](c3ccccc3)OC(=O)[C@H]2[C@@H]1C(=O)NC[C@H](O)c1ccccc1)C(=O)OC has measured z-score not below -0.5. Thanks!
Given back: not satisfied

Asked: Quick check: does O=C1O[C@@H](c2ccccc2)[C@@H](c2ccccc2)N2[C@@H](c3ccc(O)cc3)[C@]3(C(=O)Nc4ccc(C#CC5(O)CCCCCC5)cc43)[C@@H](C(=O)N3CCCCCCC3)[C@H]12 have z-score greater than or equal to -0.5?
Given back: not satisfied

Asked: Hi team, for C=CCC(OC(C)=O)[C@@H]1[C@@H](N(Cc2cccc3ccccc23)C(=O)c2ccc(C)cc2)c2cc(OCCCO)ccc2N1C(=O)Cc1ccc(OC)cc1 (some centres undefined) , is the recorded z-score at or above -0.5?
Given back: satisfied
